# ASSAY_TARGET: UniProt P31645
# Sequence (P31645 whole entry): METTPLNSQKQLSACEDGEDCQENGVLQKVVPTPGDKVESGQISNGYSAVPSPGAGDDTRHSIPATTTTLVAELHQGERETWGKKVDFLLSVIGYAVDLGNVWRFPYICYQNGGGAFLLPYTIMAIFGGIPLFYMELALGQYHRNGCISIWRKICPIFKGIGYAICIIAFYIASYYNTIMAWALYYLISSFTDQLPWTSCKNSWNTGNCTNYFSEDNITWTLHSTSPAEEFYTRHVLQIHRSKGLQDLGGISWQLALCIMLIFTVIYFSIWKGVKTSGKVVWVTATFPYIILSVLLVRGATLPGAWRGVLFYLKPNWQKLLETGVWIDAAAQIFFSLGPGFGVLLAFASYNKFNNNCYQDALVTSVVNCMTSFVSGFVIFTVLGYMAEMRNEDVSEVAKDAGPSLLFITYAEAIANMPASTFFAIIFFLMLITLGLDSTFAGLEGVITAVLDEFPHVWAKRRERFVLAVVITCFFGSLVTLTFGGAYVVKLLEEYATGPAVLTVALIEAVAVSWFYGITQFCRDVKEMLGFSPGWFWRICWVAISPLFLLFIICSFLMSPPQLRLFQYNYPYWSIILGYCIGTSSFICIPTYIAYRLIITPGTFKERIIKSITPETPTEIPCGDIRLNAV
# ASSAY_INFO: effect on efflux of monoamine neurotransmitters, hSERT
# STUDY_CONDITIONS: efflux measured as percentage of vehicle, FIG. 1
MEASURED_ATTRIBUTE: IC50

### Prompt Could you share what IC50 was measured for CC(N)CCc1ccccc1Cl (stereo not shown) [SK609, 4-(2-chlorophenyl)-butan-2-amine] , tested on UniProt P31645?
### Response 35.9 µM

* * *

# ASSAY_TARGET: UniProt:P23975
# Sequence (P23975 whole entry): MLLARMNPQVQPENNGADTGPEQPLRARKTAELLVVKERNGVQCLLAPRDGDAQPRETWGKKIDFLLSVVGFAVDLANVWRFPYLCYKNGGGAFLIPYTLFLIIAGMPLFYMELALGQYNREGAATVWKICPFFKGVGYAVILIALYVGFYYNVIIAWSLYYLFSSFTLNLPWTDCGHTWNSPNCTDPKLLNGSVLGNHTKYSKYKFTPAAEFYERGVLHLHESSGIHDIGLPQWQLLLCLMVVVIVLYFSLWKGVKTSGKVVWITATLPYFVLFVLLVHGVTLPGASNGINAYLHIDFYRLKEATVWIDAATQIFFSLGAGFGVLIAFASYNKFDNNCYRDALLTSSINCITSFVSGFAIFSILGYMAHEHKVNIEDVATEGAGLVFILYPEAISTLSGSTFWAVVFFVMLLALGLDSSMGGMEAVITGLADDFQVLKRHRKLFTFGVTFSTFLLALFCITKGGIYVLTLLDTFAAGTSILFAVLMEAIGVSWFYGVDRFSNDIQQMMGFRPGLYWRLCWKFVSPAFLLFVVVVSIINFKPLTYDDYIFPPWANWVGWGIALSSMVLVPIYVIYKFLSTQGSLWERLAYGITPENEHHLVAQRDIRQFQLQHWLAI
# ASSAY_INFO: effect on efflux of monoamine neurotransmitters, hNET
# STUDY_CONDITIONS: efflux measured as percentage of vehicle, FIG. 1
MEASURED_ATTRIBUTE: pIC50
Numbers only, as −log10 of the molar value.

### Prompt Any idea what pIC50 was measured for CC(N)CCc1ccccc1Cl (stereo not shown) [SK609, 4-(2-chlorophenyl)-butan-2-amine] ?
### Response 6.54
